B1: PKD2L1 (parent)
chain: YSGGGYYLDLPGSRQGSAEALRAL

Variants of: B1
Assay: protein stability index of a GFP-peptide fusion (GPS, HEK-293T) (PSI 1-6); higher = more stable;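 note: lentivirally expressed fusions sorted by FACS into six bins by GFP to DsRed ratio, PSI derived from sequencing read proportions per bin multiplied by bin number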
Details: c terminus: a fixed tail appended
The entries below come with measured protein stability index values attached.

>>> assay_value("G12I")
1.55
>>> assay_value("Q15S")
1.83

I'd like to know its protein stability index. The variant in question is S17V
1.61

Note, next up: Q15N
1.94

What would you report for S17C ?
1.39

Data credit: the supplement of paper PMC10567573
